Target: HLA-B*57:01
Assay: IEDB peptide-MHC binding, purified MHC/competitive/fluorescence; filed as Kd, often an IC50 or EC50 that approximates it; bounds were set here for any values at or beyond the usual limits of such assays
Conditions: source organism: Orthomarburgvirus marburgense
measure name: Kd

sequence_text=GIADFIIFK reported_result="≥ 20 µM"

---

Target: HLA-B*39:01
Assay: IEDB peptide-MHC binding, purified MHC/direct/fluorescence; filed as Kd, often an IC50 or EC50 that approximates it; bounds were set here for any values at or beyond the usual limits of such assays
Conditions: source organism: Burkholderia mallei
measure name: Kd

sequence_text=RVVRPWGSY reported_result="≥ 20 µM"
